Target: Human adenosine ADORA3 receptor membrane protein (Homo sapiens, UniProt P0DMS8)
Construct: purchased PerkinElmer ES-012-M400UA
Sequence (P0DMS8 1-318): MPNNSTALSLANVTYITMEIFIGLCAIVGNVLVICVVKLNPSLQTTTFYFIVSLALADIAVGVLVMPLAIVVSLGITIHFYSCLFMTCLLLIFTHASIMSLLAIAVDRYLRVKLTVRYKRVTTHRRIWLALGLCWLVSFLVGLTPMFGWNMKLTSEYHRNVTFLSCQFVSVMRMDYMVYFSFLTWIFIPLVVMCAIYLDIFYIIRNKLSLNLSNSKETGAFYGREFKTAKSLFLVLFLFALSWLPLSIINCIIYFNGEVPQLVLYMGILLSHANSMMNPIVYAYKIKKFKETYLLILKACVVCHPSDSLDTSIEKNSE
Assay: Radioisotope ligand competitive binding, ADORA3 ([3H] HEMADO)
Details: ADORA3 (IC50, nM, n = 3), binding test, Table 11
measure: IC50
// return the numeric value with its unit appended

Solved cases below.
>  <compound>
Cn1nnc(-c2ccc(CCNc3nc(N)n4nc(-c5ccco5)nc4n3)cc2)n1

>  <readout_value>
1610 nM

$$$$
>  <compound>
Nc1nc(NCCc2ccc(NC3COC3)cc2)nc2nc(-c3ccco3)nn12

>  <readout_value>
703 nM

$$$$

QUERY: Sample Nc1nc2ccc(Cl)cc2c2nc(-c3ccco3)nn12 [CGS-15943, reference compound] — what was its IC50?
RESULT: 14.5 nM

---

Biological target: adenosine receptor A1 (Homo sapiens, UniProt P30542)
Construct: host or cells: CHO
Assay: cAMP experiment on Gi-coupled adenosine receptor A1 (CHO)
Format: cell-based
Conditions: cAMP accumulation, NECA EC80 + forskolin; read-out: IC50 (nM) CHO cells (ADORA1)
Experimental: In this experiment, a CHO cell strain stably expressing the adenosine receptor Al was taken as a study object (PerkinElmer, ES-010-C) for the experiment. […] A solution system for cell inoculation was 10 μL of cAMP experimental buffer. […] The fluorescence signal ratio of each well in the test plate was read, and the IC50 value of the compound was calculated by using the output data of the reference inhibitor and test compound and the concentration of the compound.
In this section we review reported IC50 values for a set of compounds.
The reply should be a number in nM, with the unit left off.

>  <compound>
CCn1c(=O)c2c(nc(/C=C/c3ccc(OC)c(OC)c3)n2C)n(CC)c1=O [Istradefylline, reference compound]

>  <readout_value>
1200

$$$$
>  <compound>
COCCNc1ccc(CCNc2nc(N)n3nc(-c4ccco4)nc3n2)cc1

>  <readout_value>
679

$$$$
>  <compound>
Nc1nc(NCCc2ccc(NC3COC3)cc2)nc2nc(-c3ccco3)nn12

>  <readout_value>
928

$$$$

Attention now shifts to the item below.
QUERY: Sample `Cn1nnc(-c2ccc(CCNc3nc(N)n4nc(-c5ccco5)nc4n3)cc2)n1` — what was its IC50?
RESULT: 388

---

Molecular target: Human adenosine ADORA1 receptor membrane protein (Homo sapiens, UniProt P30542)
Construct: purchased PerkinElmer ES-010-M400UA
Sequence (P30542 1-326): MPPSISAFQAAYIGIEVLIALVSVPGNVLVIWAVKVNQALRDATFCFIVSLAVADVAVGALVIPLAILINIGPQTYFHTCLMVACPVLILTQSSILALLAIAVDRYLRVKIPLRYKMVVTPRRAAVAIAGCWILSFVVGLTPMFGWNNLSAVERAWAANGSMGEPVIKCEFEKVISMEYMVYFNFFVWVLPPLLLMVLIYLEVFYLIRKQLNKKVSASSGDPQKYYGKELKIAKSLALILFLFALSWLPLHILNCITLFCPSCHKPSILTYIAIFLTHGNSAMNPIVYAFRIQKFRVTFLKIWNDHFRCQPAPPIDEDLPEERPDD
Test: Radioisotope ligand competitive binding, ADORA1 ([3H] DPCPX)
Settings: ADORA1 (IC50, nM, n = 3), binding test, Table 11
In this section we review reported IC50 values for a set of molecules.
The reply should be a number in nM, with the unit left off.

QUERY: Sample Nc1nc(NCCc2ccc(NC3COC3)cc2)nc2nc(-c3ccco3)nn12 [Compound 22] — what was its IC50?
RESULT: 564

QUERY: Sample Cn1nnc(-c2ccc(CCNc3nc(N)n4nc(-c5ccco5)nc4n3)cc2)n1 [Compound 40] — what was its IC50?
RESULT: 441
